# system: IGF-1R (Homo sapiens (Human))
# Sequence (P08069 31-1367, species assumed): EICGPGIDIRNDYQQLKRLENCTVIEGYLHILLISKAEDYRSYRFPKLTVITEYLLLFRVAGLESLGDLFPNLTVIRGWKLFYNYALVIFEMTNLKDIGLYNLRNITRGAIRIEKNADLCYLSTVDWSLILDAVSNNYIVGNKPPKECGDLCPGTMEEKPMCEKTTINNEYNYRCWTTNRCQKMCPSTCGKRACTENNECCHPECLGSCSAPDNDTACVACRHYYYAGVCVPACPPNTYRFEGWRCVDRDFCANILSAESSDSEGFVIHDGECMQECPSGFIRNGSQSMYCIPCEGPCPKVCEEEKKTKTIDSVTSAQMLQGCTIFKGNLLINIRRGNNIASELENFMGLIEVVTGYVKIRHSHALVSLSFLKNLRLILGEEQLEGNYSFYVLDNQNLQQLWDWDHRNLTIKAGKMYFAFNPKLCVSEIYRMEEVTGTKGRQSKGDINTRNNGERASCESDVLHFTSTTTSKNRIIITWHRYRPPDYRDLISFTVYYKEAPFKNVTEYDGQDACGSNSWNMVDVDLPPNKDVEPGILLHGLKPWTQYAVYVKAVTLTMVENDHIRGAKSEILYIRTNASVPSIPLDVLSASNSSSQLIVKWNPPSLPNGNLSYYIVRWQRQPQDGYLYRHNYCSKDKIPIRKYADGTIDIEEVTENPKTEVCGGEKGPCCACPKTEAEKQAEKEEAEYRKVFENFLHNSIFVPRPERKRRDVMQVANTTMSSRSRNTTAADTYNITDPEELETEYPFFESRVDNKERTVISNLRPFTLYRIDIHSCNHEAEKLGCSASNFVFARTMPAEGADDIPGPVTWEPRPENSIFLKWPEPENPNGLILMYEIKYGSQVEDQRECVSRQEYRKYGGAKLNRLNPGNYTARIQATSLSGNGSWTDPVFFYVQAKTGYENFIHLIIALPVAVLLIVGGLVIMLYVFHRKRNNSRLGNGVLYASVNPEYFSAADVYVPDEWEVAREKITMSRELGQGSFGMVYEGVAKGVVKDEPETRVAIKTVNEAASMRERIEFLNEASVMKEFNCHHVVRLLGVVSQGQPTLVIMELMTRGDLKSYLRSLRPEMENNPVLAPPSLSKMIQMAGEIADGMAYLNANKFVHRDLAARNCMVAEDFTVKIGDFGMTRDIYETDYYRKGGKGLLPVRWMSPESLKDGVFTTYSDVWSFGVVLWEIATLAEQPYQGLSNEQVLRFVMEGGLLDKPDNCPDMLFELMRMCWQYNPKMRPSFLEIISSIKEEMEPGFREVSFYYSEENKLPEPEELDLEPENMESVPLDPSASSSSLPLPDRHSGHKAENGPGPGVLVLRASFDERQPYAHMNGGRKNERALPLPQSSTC
# test-details: Example B-2: IGF-1R Assay (PathHunter cell lines, EC80 agonist challenge)
# Format: cell-based
# condition-context: read-out: IC50 (Biological Activity against IGF-1R)
pIC50: −log10 of the molar value.

[
  {
    "compound": "COc1cc(Nc2nccc(Nc3cnc4ccccc4c3)n2)ccc1O[C@H]1CC[C@H](N(C)C)CC1",
    "pIC50": "≥ 6.30"
  },
  {
    "compound": "COc1cc([C@H]2CC[C@](C)(O)CC2)ccc1Nc1nccc(Nc2cc3cccc(F)c3[nH]c2=O)n1",
    "pIC50": "≥ 6.30"
  },
  {
    "compound": "COc1cc(Nc2nccc(Nc3cc4ccccc4nc3C(N)=O)n2)ccc1O[C@H]1C[C@@H](N(C)C)C1",
    "pIC50": "5.70 to 6.30"
  },
  {
    "compound": "CN(C)CC1COc2cc(Nc3nccc(Nc4cnc5ccc(C(F)F)cc5c4)n3)ccc2O1 (stereo not shown)",
    "pIC50": "≥ 6.30"
  }
]
